- measurement parameters: in methyl acetate, 322.15 K
assay metric: solubility (mole fraction)

>>> value("CC(=O)c1cccc(O)c1")
0.376

---

- measurement parameters: in benzene, 298.15 K
assay metric: solubility (mole fraction)

>>> value("CC(=O)c1cccc(O)c1")
0.00848

---

- measurement parameters: in n-propanol, 301.15 K
assay metric: solubility (mole fraction)

>>> value("CC(=O)c1cccc(O)c1")
0.211

---

- measurement parameters: in methyl acetate, 298.15 K
assay metric: solubility (mole fraction)

>>> value("CC(=O)c1cccc(O)c1")
0.197

---

- measurement parameters: in ethyl acetate, 289.15 K
assay metric: solubility (mole fraction)

>>> value("CC(=O)c1cccc(O)c1")
0.158
